src = patent US20060258683A1

pEC50 for assorted molecules
tested_on: PPARγ (Homo sapiens)
Sequence (P37231 238-503 limits assumed): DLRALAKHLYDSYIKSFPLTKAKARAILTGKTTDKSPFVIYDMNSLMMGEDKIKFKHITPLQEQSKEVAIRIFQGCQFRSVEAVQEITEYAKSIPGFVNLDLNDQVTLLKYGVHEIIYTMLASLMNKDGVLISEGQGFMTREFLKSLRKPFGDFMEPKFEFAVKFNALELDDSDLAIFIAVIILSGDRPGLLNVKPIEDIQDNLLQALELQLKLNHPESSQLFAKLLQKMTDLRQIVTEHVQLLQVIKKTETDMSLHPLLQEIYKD
measurement_protocol: PPAR-gamma EC50, functional cell (transactivation) assay
pEC50: −log10 of the molar value.

As a guide, the following entries are already answered.
>>> df
                                   molecule  reported_metric         value
0  COc1cccc(N2CCN(S(=O)(=O)c3ccc(OC(C)(C)C(=O)O)c(C)c3)CC2)c1            pEC50  4.00 to 6.00
1  Cc1cc(S(=O)(=O)N2CCN(c3ccc(C(C)(C)C)cc3)CC2)ccc1OC(C)(C)C(=O)O            pEC50  4.00 to 6.00
2  Cc1cc(S(=O)(=O)N2CCN(c3ccc(C#N)cc3)CC2)ccc1OC(C)(C)C(=O)O            pEC50        < 4.00
3  Cc1cc(S(=O)(=O)N2CCN(c3ccc(F)cc3)CC2)ccc1OC(C)(C)C(=O)O            pEC50  4.00 to 6.00
4  Cc1ccc(N2CCN(S(=O)(=O)c3ccc(OC(C)(C)C(=O)O)c(C)c3)CC2C)cc1C (stereo not drawn)            pEC50        < 4.00

**Q:** What value of measured pEC50 is listed for `Cc1cc(S(=O)(=O)N2CCN(Cc3ccc(F)cc3)CC2)ccc1OC(C)(C)C(=O)O` ?
**A:** 4.00 to 6.00

**Q:** Which measured pEC50 value corresponds to `Cc1ccc(N2CCN(S(=O)(=O)c3ccc(OC(C)(C)C(=O)O)c(C)c3)CC2)c(C)c1` ?
**A:** 4.00 to 6.00

**Q:** Reported pEC50 for `Cc1cc(S(=O)(=O)N2CCN(c3ccc(Cl)cc3)CC2)ccc1OC(C)(C)C(=O)O` : what is it?
**A:** 4.00 to 6.00

**Q:** For Cc1cc(S(=O)(=O)N2CCN(C(c3ccccc3)c3ccc(Cl)cc3)CC2)ccc1OC(C)(C)C(=O)O (stereo not drawn) [drawing 127] , what is its reported pEC50?
**A:** 4.00 to 6.00

###

tested_on: PPARα (Homo sapiens, UniProt Q07869)
measurement_protocol: PPAR-alpha EC50, functional cell (transactivation) assay
pEC50: −log10 of the molar value.
Readings of pEC50 for the listed compounds

**Q:** What value of measured pEC50 is listed for `Cc1cc(S(=O)(=O)N2CCN(c3ccccc3)CC2)ccc1OC(C)(C)C(=O)O` ?
**A:** < 4.00

###

tested_on: PPARδ (Homo sapiens, UniProt Q03181)
Sequence (Q03181 211-439 limits assumed): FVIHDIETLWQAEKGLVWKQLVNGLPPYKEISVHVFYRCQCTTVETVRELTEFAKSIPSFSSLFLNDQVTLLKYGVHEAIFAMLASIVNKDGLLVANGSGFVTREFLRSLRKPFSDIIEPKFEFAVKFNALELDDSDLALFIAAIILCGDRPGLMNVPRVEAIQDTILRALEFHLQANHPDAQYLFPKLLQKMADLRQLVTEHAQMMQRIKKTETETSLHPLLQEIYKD
measurement_protocol: PPAR-delta EC50, functional cell (transactivation) assay
reported_metric: EC50

These recorded examples may help you get a feel for the data.
                                   molecule                             tested_on  reported_metric        value
0  Cc1cc(S(=O)(=O)N2CCN(C(c3ccccc3)c3ccc(Cl)cc3)CC2)ccc1OC(C)(C)C(=O)O (stereo not shown) [drawing 127]  PPARδ (Homo sapiens, UniProt Q03181)             EC50  1 to 100 µM
1  Cc1cc(S(=O)(=O)N2CCN(C(c3ccccc3)c3ccc(Cl)cc3)CC2)ccc1OC(C)(C)C(=O)O (stereo not shown) [drawing 116]  PPARδ (Homo sapiens, UniProt Q03181)             EC50  1 to 100 µM
2  CC(C)(Oc1ccc(S(=O)(=O)N2CCN(c3ccccn3)CC2)cc1)C(=O)O  PPARδ (Homo sapiens, UniProt Q03181)             EC50     > 100 µM

We now examine a further molecule.
**Q:** What value of EC50 has been reported for the following molecule? `COc1cccc(N2CCN(S(=O)(=O)c3ccc(OC(C)(C)C(=O)O)c(C)c3)CC2)c1`
**A:** 1 to 100 µM

###

This section presents compounds with their documented pEC50 values.
tested_on: PPARα (Homo sapiens)
Sequence (Q07869 239-466 limits assumed): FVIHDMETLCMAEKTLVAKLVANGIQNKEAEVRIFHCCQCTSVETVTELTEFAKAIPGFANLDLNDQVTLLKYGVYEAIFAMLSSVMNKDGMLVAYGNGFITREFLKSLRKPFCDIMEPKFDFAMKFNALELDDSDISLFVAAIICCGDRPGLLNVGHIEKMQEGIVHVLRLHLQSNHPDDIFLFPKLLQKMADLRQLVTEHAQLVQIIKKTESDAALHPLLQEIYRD
measurement_protocol: PPAR-alpha EC50, functional cell (transactivation) assay
Excerpt: The following transfection assay methods are provided by way of example only. Compounds may be screened for functional potency in transient transfection assays in CV-1 cells for their ability to activate the PPAR subtypes (transactivation assay). […]
pEC50: −log10 of the molar value.

// worked examples, pEC50 included
>>> df
                                   compound  reported_metric         value
0  CC(C)(Oc1ccc(S(=O)(=O)N2CCN(c3ccccn3)CC2)cc1)C(=O)O            pEC50        < 4.00
1  CC(C)(Oc1ccc(S(=O)(=O)N2CCN(c3ccc(Cl)c(Cl)c3)CC2)cc1)C(=O)O            pEC50  4.00 to 6.00
2  Cc1cccc(N2CCN(S(=O)(=O)c3ccc(OC(C)(C)C(=O)O)cc3)CC2C)c1 (centres unmarked)            pEC50        < 4.00
3  COc1ccc(N2CCN(S(=O)(=O)c3ccc(OC(C)(C)C(=O)O)c(C)c3)CC2)cc1            pEC50        < 4.00
4  Cc1cc(S(=O)(=O)N2CCN(CC3CCCCC3)CC2)ccc1OC(C)(C)C(=O)O            pEC50        < 4.00
5  Cc1cc(S(=O)(=O)N2CCN(c3ccccc3F)CC2)ccc1OC(C)(C)C(=O)O            pEC50        < 4.00
6  Cc1cc(S(=O)(=O)N2CCN(C/C=C/c3ccccc3)CC2)ccc1OC(C)(C)C(=O)O            pEC50        < 4.00
7  Cc1cc(S(=O)(=O)N2CCN(c3ccc(Cl)cc3)CC2)ccc1OC(C)(C)C(=O)O            pEC50        < 4.00

**Q:** What value of measured pEC50 is listed for `CCOc1ccccc1N1CCN(S(=O)(=O)c2ccc(OC(C)(C)C(=O)O)c(C)c2)CC1` ?
**A:** 4.00 to 6.00

**Q:** Fill in the blank: the reported pEC50 of `Cc1cc(S(=O)(=O)N2CCN(c3ccc(F)cc3)CC2)ccc1OC(C)(C)C(=O)O` is ____.
**A:** < 4.00

**Q:** Can you share its pEC50? I mean this compound: `Cc1cc(S(=O)(=O)N2CCN(c3cccc(Br)c3)CC2)ccc1OC(C)(C)C(=O)O`
**A:** < 4.00

**Q:** What does the data say about its pEC50? Entry: `CC(C)(Oc1ccc(S(=O)(=O)N2CCN(c3ccc(F)cc3)CC2)cc1)C(=O)O`
**A:** < 4.00

**Q:** # query: pEC50 of entry `CC(C)(Oc1ccc(S(=O)(=O)N2CCN(c3ccccc3F)CC2)cc1)C(=O)O`
**A:** < 4.00

**Q:** Which pEC50 value belongs to `Cc1cc(S(=O)(=O)N2CCN(c3ccc([N+](=O)[O-])cc3)CC2)ccc1OC(C)(C)C(=O)O` ?
**A:** < 4.00

###

# EC50 listing for each entry below
tested_on: PPARα (Homo sapiens, UniProt Q07869)
measurement_protocol: PPAR-alpha EC50, functional cell (transactivation) assay

Below, 8 compounds whose answers are already recorded.
>>> print(df.to_string())
                                   compound        value
0  Cc1cccc(N2CCN(S(=O)(=O)c3ccc(OC(C)(C)C(=O)O)c(C)c3)CC2C)c1 (stereo not drawn)     > 100 µM
1  Cc1ccc(N2CCN(S(=O)(=O)c3ccc(OC(C)(C)C(=O)O)c(C)c3)CC2C)cc1C (stereo not drawn)     > 100 µM
2  Cc1cc(S(=O)(=O)N2CCN(c3cccc(Cl)c3)CC2)ccc1OC(C)(C)C(=O)O     > 100 µM
3  Cc1cc(S(=O)(=O)N2CCN(c3ccccc3C#N)CC2)ccc1OC(C)(C)C(=O)O     > 100 µM
4  Cc1cc(S(=O)(=O)N2CCN(C(c3ccccc3)c3ccc(Cl)cc3)CC2)ccc1OC(C)(C)C(=O)O (stereo not drawn) [drawing 127]  1 to 100 µM
5  Cc1cc(S(=O)(=O)N2CCN(c3ccc(C#N)cc3)CC2)ccc1OC(C)(C)C(=O)O     > 100 µM
6  Cc1cc(S(=O)(=O)N2CCN(C(c3ccccc3)c3ccc(Cl)cc3)CC2)ccc1OC(C)(C)C(=O)O (stereo not drawn) [drawing 116]  1 to 100 µM
7  Cc1cc(S(=O)(=O)N2CCN(c3ccc(C(C)(C)C)cc3)CC2)ccc1OC(C)(C)C(=O)O     > 100 µM

**Q:** What measured EC50 goes with `Cc1cc(S(=O)(=O)N2CCN(Cc3ccc(F)cc3)CC2)ccc1OC(C)(C)C(=O)O` ?
**A:** > 100 µM

**Q:** Which EC50 is reported for this compound? `COc1ccccc1N1CCN(S(=O)(=O)c2ccc(OC(C)(C)C(=O)O)c(C)c2)CC1`
**A:** > 100 µM

**Q:** // query EC50 value for entry `Cc1cc(S(=O)(=O)N2CCN(C(c3ccc(F)cc3)c3ccc(F)cc3)CC2)ccc1OC(C)(C)C(=O)O`
**A:** 1 to 100 µM

**Q:** Please report the recorded EC50 for `COc1cccc(N2CCN(S(=O)(=O)c3ccc(OC(C)(C)C(=O)O)c(C)c3)CC2)c1` .
**A:** 1 to 100 µM

**Q:** Quick one: EC50 for `CCc1cnc(N2CCN(S(=O)(=O)c3ccc(OC(C)(C)C(=O)O)cc3)CC2)nc1` ?
**A:** 1 to 100 µM
